- System: SK-MEL-2 melanoma
- Run Description: NCI-60 one-dose screen, 48 h
- Cond: 10 µM
About 83,000 compounds went through this panel and 20% of them were active in at least one assay; those are over-represented in the sample as a whole. Calls of active or inactive are those of the source. Rule for the calls: active = growth percent below 10; inactive = the rest.
Labels: 1 for active, 0 for inactive

INSERT INTO measurements (compound, group) VALUES
  ('CCOC(=O)c1cc2c(n1Cc1ccccc1)-c1oncc1CC2', 0),
  ('COc1cc(C2C(C#N)=C(c3c[nH]c4ccccc34)Nc3nc(N)[nH]c(=O)c32)cc(OC)c1OC (stereo not given)', 0),
  ('c1ccc(OCCC[P+](c2ccccc2)(c2ccccc2)c2ccccc2)cc1', 1),
  ('COc1ccc2nc(/C=C/c3ccc(N(C)C)cc3)sc2c1', 0),
  ('COC(=O)C1(C(=O)OC)C2C(=O)C3C(C21)C3(C(=O)OC(C)(C)C)C(=O)OC(C)(C)C (stereo not given)', 0);

----------
- Tested on: HCT-15 colon
- Run Description: NCI-60 one-dose screen, 48 h (100 = growth as untreated, 0 = no growth, -100 = all killed)
- Cond: 10 µM
This is part of a sample that, as a whole, favours compounds with a hit. Of some 83,000 tested, about 20% had one in any assay.
Threshold-based label: growth under 40% gives Yes, growth not under 40% gives No.

INSERT INTO assay_data (compound, group) VALUES
  ('Cc1ccc(/C(CS(=O)(=O)c2ccc(C)cc2)=N\O)cc1', 'No'),
  ('CCOC(=O)c1c(Cl)c2c(n1Cc1cccc(OC)c1)-c1oncc1CC2', 'Yes'),
  ('CC(C)=C1CCC(C)C/C1=N\N=C(N)N (stereo not given)', 'No'),
  ('Cc1ncc([N+](=O)[O-])n1CCOc1ccc(C(=O)/C=C/c2ccc(C(F)(F)F)cc2)cc1', 'Yes'),
  ('OC(CNC1CCCC1)Cn1c2ccccc2c2ccccc21 (stereo not given)', 'Yes'),
  ('O=S(=O)(NC1c2ccccc2Oc2ccccc21)c1cc(Cl)ccc1Cl', 'No'),
  ('COc1ccc(C2C=C(c3ccc(Cl)c(Cl)c3)N=C3SC(C)=CN32)cc1 (stereo not given)', 'No'),
  ('CCCc1c(CC)c(=N)c2ccccc2n1C', 'Yes'),
  ('O=C/C=C/c1ccc([N+](=O)[O-])cc1Cl', 'No'),
  ('COC(=O)[C@]12CC[C@@H](C)[C@H](C)[C@@H]1C1=CC[C@@H]3[C@@]4(C)C[C@@H](O)[C@H](O)[C@@](C)(CO)[C@@H]4[C@H](O)C[C@@]3(C)[C@]1(C)CC2', 'Yes');

----------
- Test system: MDA-MB-231 breast
- Run Description: NCI-60 one-dose screen, 48 h (100 = growth as untreated, 0 = no growth, -100 = all killed)
- Cond: 10 µM
About 83,000 compounds went through this panel and 20% of them were active in at least one assay; those are over-represented in the sample as a whole. The source made the active and inactive calls. Rule for the calls: active = growth percent below 10; inactive = the rest.
The entries below come with measured growth values attached.
Quantity Measured: growth

INSERT INTO assay_data (compound, quantity_measured, assay_result) VALUES
  ('N#C/C(=C/c1cc([N+](=O)[O-])ccc1Cl)C(N)=O', 'growth', '111% (inactive)'),
  ('COc1cc(-c2cc(-c3ccc(C)cc3)nc3nc(N)[nH]c(=O)c23)ccc1Oc1ccnc2cc(Cl)ccc12', 'growth', '66.6% (inactive)'),
  ('CCCCCCCCCCN=C(c1ccc(N(C)C)cc1)c1ccc(N(C)C)cc1', 'growth', '49.5% (inactive)'),
  ('CCNC1(NC#N)CCCCC1', 'growth', '107% (inactive)'),
  ('COc1cc(-c2n/c(=C\c3c(O)[nH]c4ccccc34)cc3c2=Nc2ccccc2-3)cc(OC)c1OC', 'growth', '10.8% (inactive)'),
  ('CCOC(=O)[C@@H](Cc1ccccc1)NC(=O)c1[nH]c2ccc(Cl)cc2c(=O)c1C', 'growth', '106% (inactive)'),
  ('Nc1c(C(=O)NC2CCCCC2)sc2nc3c(cc12)C(=O)CCC3', 'growth', '101% (inactive)'),
  ('CCOc1cc(Br)c(C(C)NC(=O)c2cccc(OC)c2)cc1OCC (configuration not stated)', 'growth', '39% (inactive)'),
  ('COc1cc(-c2nc3cc(Cl)c(Cl)cc3[nH]2)ccc1OCC(=O)NN', 'growth', '57.8% (inactive)'),
  ('CCC(CCNc1cc(OC)cc2cccnc12)CN1C(=O)c2ccccc2C1=O (configuration not stated)', 'growth', '96% (inactive)'),
  ('CCCCc1ccc(NC(=O)N(CCCl)N=O)cc1', 'growth', '107% (inactive)'),
  ('O=NN(CCCl)C(=O)NCc1ccc(-c2ccc(CNC(=O)N(CCCl)N=O)cc2)cc1', 'growth', '124% (inactive)'),
  ('C[N+]1=C(/C=C/c2ccc(I)cc2)C(C)(C)c2ccccc21', 'growth', '67.1% (inactive)'),
  ('CCCCCCCCCCCC(c1ccccc1)N(C)C (configuration not stated)', 'growth', '76.7% (inactive)'),
  ('Cc1cnc(C=O)c2cccc([N+](=O)[O-])c12', 'growth', '93.4% (inactive)'),
  ('O=C(COCc1c(-c2ccccc2)no[n+]1[O-])Nc1nc(-c2ccc(Cl)cc2)cs1', 'growth', '99.9% (inactive)'),
  ('C#C[C@]1(O)CC[C@H]2[C@@H]3CC[C@H]4CC(F)(F)CC[C@]4(C)[C@H]3CC[C@@]21C', 'growth', '101% (inactive)'),
  ('O=C(CCl)N1c2ccccc2Sc2ccc3ccccc3c21', 'growth', '-72.5% (active)'),
  ('CCCN(CCC)CCCNC(=O)c1cc2c(-c3ccc(OC)c(OC)c3)nn(C)c2s1', 'growth', '21.8% (inactive)'),
  ('CCN(CC)CC(O)CNc1ccnc2cc(Cl)c(Cl)cc12 (configuration not stated)', 'growth', '60% (inactive)'),
  ('COc1ccc(-c2nsc3c2NC(=O)CC3c2cccc(Cl)c2)cc1 (configuration not stated)', 'growth', '51.6% (inactive)'),
  ('Nc1ccc(C2=CC(c3ccc(Cl)cc3)N3C=CSC3=N2)cc1 (configuration not stated)', 'growth', '-14.4% (active)');

----------
- Tested on: SF-539 CNS
- Run Description: NCI-60 one-dose screen, 48 h
- Cond: 10 µM
About 83,000 compounds went through this panel and 20% of them were active in at least one assay; those are over-represented in the sample as a whole. Activity calls are given as the source filed them. How the source made its calls: active means growth percent below 10; inactive means the rest.
Labels: active, inactive

INSERT INTO results (compound, assay_system, group) VALUES
  ('COc1cc(C2=Nc3c/c(=C\c4c(O)[nH]c5ccc(Cl)cc45)ccc3=N2)cc(OC)c1OC', 'SF-539 CNS', 'active'),
  ('O=[N+]([O-])c1cc2ncccc2c2ncccc12', 'SF-539 CNS', 'inactive'),
  ('O=C1c2cc(Cl)ccc2-c2c(O)cc(Cl)cc21', 'SF-539 CNS', 'inactive'),
  ('COc1ccc(C(C)=O)cc1N1C(=O)C2C(C1=O)C1(c3ccccc3)C(=O)C2(c2ccccc2)C(c2ccc(C)cc2)=C1c1ccc(C)cc1 (centres undefined)', 'SF-539 CNS', 'inactive'),
  ('O=S(=O)(NCCO)c1ccc(OCCOc2ccc(S(=O)(=O)NCCO)cc2)cc1', 'SF-539 CNS', 'inactive'),
  ('CCOC(=O)Cn1nnc(-c2ccc(OCc3ccccc3F)cc2)n1', 'SF-539 CNS', 'inactive'),
  ('CCCc1ccnc(NS(=O)(=O)c2ccc(N)cc2)n1', 'SF-539 CNS', 'inactive'),
  ('Clc1cc(Cl)c(OCCCCCCN2CCNCC2)c(Cl)c1', 'SF-539 CNS', 'inactive'),
  ('CCOc1cc(Br)c(C(C)NC(=O)c2cccc(OC)c2)cc1OCC (centres undefined)', 'SF-539 CNS', 'inactive'),
  ('Cc1ccccc1[P+](Cc1ccccc1)(c1ccccc1)c1ccccc1', 'SF-539 CNS', 'inactive'),
  ('CCOC(=O)Nc1ccc2c(c1)C(=O)N(CCOC)c1ccccc1O2', 'SF-539 CNS', 'inactive'),
  ('COC(=O)CCCCCCCCC(C)c1ccc(C(C)=O)cc1 (centres undefined)', 'SF-539 CNS', 'inactive'),
  ('C=CCn1c(C)nc2cc(Nc3nc(Nc4ccc5nc(C)n(CC=C)c5c4)c4ccccc4n3)ccc21', 'SF-539 CNS', 'active'),
  ('Cc1ccc(C)c2c1sc1nc3n[nH]c(N)c3c(=N)n12', 'SF-539 CNS', 'inactive'),
  ('CCc1ccc(Nc2cc(C)nc3nc(C)nn23)cc1', 'SF-539 CNS', 'active'),
  ('COc1ccc(-c2cc(=O)n(-c3nc4ccccc4[nH]3)[nH]2)cc1OC', 'SF-539 CNS', 'inactive'),
  ('COc1ccc(C2CC(c3ccc(-c4ccccc4)cc3)=NN2c2ccc(S(N)(=O)=O)cc2)cc1 (centres undefined)', 'SF-539 CNS', 'inactive'),
  ('COc1cccc(C(=O)N(c2ccc(F)c(F)c2)C(C(=O)NC(C)(C)C)c2cc3c(C)cc(C)cc3nc2Cl)c1 (centres undefined)', 'SF-539 CNS', 'inactive'),
  ('COc1ccc(-c2nnc(SCC(=O)c3ccccc3)o2)cc1', 'SF-539 CNS', 'inactive'),
  ('COc1ccc(-c2nc(-c3ccccc3)c(-c3ccccc3)[nH]2)cc1OC1CCCC1', 'SF-539 CNS', 'inactive'),
  ('Cc1cnc(C=O)c2cccc([N+](=O)[O-])c12', 'SF-539 CNS', 'inactive'),
  ('COc1cc(C2C=C(c3ccc(Cl)c(Cl)c3)N=C3SC(C)=CN32)cc(OC)c1OC (centres undefined)', 'SF-539 CNS', 'inactive'),
  ('CC(=O)c1c(O)cc2c3c1OC(C)(C)C1CCC(C)(CC31)O2 (centres undefined)', 'SF-539 CNS', 'inactive'),
  ('CC(=O)Nc1ccc2c(c1)C(N1CC3CCC(CC3)C1)c1ccccc1-2 (centres undefined)', 'SF-539 CNS', 'inactive'),
  ('CCC(CCNc1cc(OC)cc2cccnc12)CN1C(=O)c2ccccc2C1=O (centres undefined)', 'SF-539 CNS', 'inactive'),
  ('CCCCCCN=C(N)CCCCCCCCCCC(N)=NCCCCCC', 'SF-539 CNS', 'inactive'),
  ('COc1ccc(-n2nnc3c(sc4ccccc43)c2=O)cc1', 'SF-539 CNS', 'inactive'),
  ('COc1cc(-c2n/c(=C\c3c(O)[nH]c4ccccc34)cc3c2=Nc2ccccc2-3)cc(OC)c1OC', 'SF-539 CNS', 'active'),
  ('COc1ccc(-c2csc(-c3cc(Cl)cc(Cl)c3Cl)n2)cc1', 'SF-539 CNS', 'inactive'),
  ('Cc1ccc(C)c(S(=O)(=O)NC2c3ccccc3Oc3ccccc32)c1', 'SF-539 CNS', 'inactive'),
  ('N/C(=N\O)c1cn(C2OC(CO)C(O)C2O)c2ncnc(N)c12 (centres undefined)', 'SF-539 CNS', 'active'),
  ('COc1cccc2c1O/C(=C\c1ccc([N+](=O)[O-])s1)C2=O', 'SF-539 CNS', 'inactive'),
  ('Cn1c(=O)c2[nH]c(C(O)c3ccc(Cl)cc3)nc2n(C)c1=O (centres undefined)', 'SF-539 CNS', 'inactive'),
  ('COc1ccc(C2C=C(c3ccc(Cl)c(Cl)c3)N=C3SC(C)=CN32)cc1 (centres undefined)', 'SF-539 CNS', 'inactive'),
  ('CCNC(=S)NN', 'SF-539 CNS', 'inactive'),
  ('CN1CCN(c2nc(-c3cccnc3)nc3sc4c(c23)CCCCCC4)CC1', 'SF-539 CNS', 'inactive'),
  ('O=c1c2cccc3c(Nc4ccc(Br)cn4)ccc(c32)c2nc3ccccc3n12', 'SF-539 CNS', 'inactive'),
  ('O=S(=O)(NC1c2ccccc2Oc2ccccc21)c1ccccc1', 'SF-539 CNS', 'inactive'),
  ('N#Cc1c2c([nH]c(=O)c1C(N)=O)CCCCC2', 'SF-539 CNS', 'inactive'),
  ('CC(C)(C)c1ccc(OCCCCCCN2CCNCC2)cc1', 'SF-539 CNS', 'inactive'),
  ('CC1(C)Cc2c(cn(Cc3ccccc3)c2-c2ccccc2)-c2oncc21', 'SF-539 CNS', 'inactive'),
  ('COc1cc(-c2nc3ccccc3[nH]2)ccc1OCC(=O)N=Nc1c(O)[nH]c2ccccc12', 'SF-539 CNS', 'inactive'),
  ('C=CCOc1ccc2c(c1)CC=C1[C@@H]2CC[C@]2(C)C(=O)/C(=N/O)C[C@@H]12', 'SF-539 CNS', 'inactive'),
  ('Cc1nc2ccc(-n3c(-c4ccc(Cl)cc4)nc4ccccc4c3=O)cc2n1Cc1ccccc1', 'SF-539 CNS', 'inactive');
